# protocol.summary: reducers of endogenous Her2 protein level, primary screen, SKBR3 breast tumor cells, AlphaScreen, ATP viability (AID 461);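 further: percent of carrier control wells set as 100% viability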
# experimental.parameters: 18-24 h, measured here: SKBR3 viability, ATP luminescence, at 10 µM
Catalogue of viability readings, one per entry.
Give the quantity in %, number only.

Sample records with viability:
molecule: Cc1ccc(C(=O)Nc2ccc3c(c2)OCO3)cc1S(=O)(=O)N1CCCC1
unit.spec: %
viability: 102

molecule: CCC(=O)N1CCN=C1SCc1ccc(Cl)cc1
unit.spec: %
viability: 90

molecule: O=C(O)c1cccc(NS(=O)(=O)c2ccc3nnn(O)c3c2)c1
unit.spec: %
viability: 123

Exercise: // query viability value for entry Cc1ccc2c(c1)-c1cc(C)nn1C(c1ccc3c(c1)OCO3)N2 (stereo not drawn)
Solution: 100

Exercise: // query viability value for entry COc1cc2c(cc1OC)C(c1cc(OC)c(OC)c(OC)c1)NCC2 (stereo not drawn)
Solution: 95.5

Exercise: // query viability value for entry COC(=O)c1cc(Br)c(=O)n(-c2ccc(OC)cc2)c1
Solution: 96.5

Exercise: // query viability value for entry Cc1cc2ncn(C(=O)c3c(-c4ccccc4)noc3C)c2cc1C
Solution: 102

Exercise: // query viability value for entry CCOC(=O)c1c(-c2cccs2)csc1NC(=O)CCCC(=O)O
Solution: 110

Exercise: // query viability value for entry Cc1ncoc1C(=O)Nc1ccccc1C(N)=O
Solution: 104

Exercise: // query viability value for entry COCCOC(=O)/C=C1/NC(=O)CS1
Solution: 96.5

Exercise: // query viability value for entry COCCN(C(=O)Cn1nnc2ccccc21)C(C(=O)NC1CCCC1)c1cc(OC)ccc1OC (stereo not drawn)
Solution: 86

* * *

Catalogue of inhibition readings, one per entry.
# protocol.summary: 384-well plate pilot, post-Golgi transport modulator project, inhibition of yeast transport mutant growth (AID 636)
# experimental.parameters: absorbance 615 nm, about 18 h, stronger effect = higher value
Give the quantity in %, number only.

compound: CCSc1ccccc1C(=O)Nc1cccc(OC)c1
unit.spec: %
inhibition: -8.49

compound: CCOc1ccc(CNC(=O)C2CCCN(S(C)(=O)=O)C2)cc1OC (stereo unspecified)
unit.spec: %
inhibition: -1.67

compound: CCN(Cc1nc2ccccc2c(=O)[nH]1)Cc1nc2cc(OC)c(OC)cc2c(=O)[nH]1
unit.spec: %
inhibition: 0.54

Exercise: // query inhibition value for entry COc1ccccc1N(CC(=O)NCc1ccccc1)S(C)(=O)=O
Solution: -9.19

Exercise: // query inhibition value for entry c1c2c(cc3sc(N4CCCCC4)nc13)OCCO2
Solution: -4.93

* * *

# protocol.summary: growth inhibitors of H69AR lung tumor, primary screen, human, duplicate replicates (AID 580);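 further: 100% = mean luminescence of untreated wells and 0% = no signal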
# experimental.parameters: H69AR lung tumor cells viability, ATP luminescence, 72 h; at 10 µM; stronger effect = lower value
observation.type: viability (%)
Give the quantity in %, number only.

molecule: CCNC(=O)CC1C(=O)N(c2ccccc2)C(=O)N1Cc1ccc(OC)cc1 (stereo unspecified)
viability / %: 94.8
--
molecule: Cc1ccccc1NC(=O)NCCCN1CCN(C2CCCCC2)CC1
viability / %: 95.8
--
molecule: CCn1cc(C(=O)NCCCOC)c(=O)c2cc(S(=O)(=O)N(C)C3CCCCC3)ccc21
viability / %: 90.8
--
molecule: CC(c1nnc(SCC(=O)Nc2sccc2C#N)n1-c1ccc(Cl)cc1)N(C)C (stereo unspecified)
viability / %: 75.4
--
molecule: O=C(CSc1ncnc2c1oc1ccccc12)Nc1ccccc1F
viability / %: 90.5

# evaluate next
Exercise: // query viability value for entry COc1ccccc1NC(=O)C(O)C(O)C(=O)Nc1ccccc1OC (stereo unspecified)
Solution: 96.1
